# MEASURED_TARGET: human IDO1 (Homo sapiens, UniProt P14902)
# Sequence (P14902 whole entry): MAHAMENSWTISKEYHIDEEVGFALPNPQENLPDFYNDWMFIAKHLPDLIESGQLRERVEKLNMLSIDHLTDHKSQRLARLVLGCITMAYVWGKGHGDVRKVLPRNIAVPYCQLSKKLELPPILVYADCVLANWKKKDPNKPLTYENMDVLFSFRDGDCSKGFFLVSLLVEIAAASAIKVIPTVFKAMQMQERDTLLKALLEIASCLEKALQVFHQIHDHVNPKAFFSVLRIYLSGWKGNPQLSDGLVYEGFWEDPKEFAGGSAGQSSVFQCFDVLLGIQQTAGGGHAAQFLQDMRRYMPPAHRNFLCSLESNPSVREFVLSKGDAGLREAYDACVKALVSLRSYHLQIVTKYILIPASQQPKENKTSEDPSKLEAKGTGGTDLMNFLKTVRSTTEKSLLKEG
# MEASUREMENT_NOTES: Assessment of human IDO-1 inhibitory activity in HEK cells (human IDO1/HEK293 cells, kynurenine read-out with Ehrlich reagent, absorbance 490 nm)
# Assay type: cell-based
# Design: expressed in transfected cells
# CONDITIONS_USED: HEK Human IDO-1 cellular assay
Documented IC50 across a set of compounds
MEASURED_QUANTITY: IC50

CCCN(CC1CC1)c1ccc(C(CC)CC(=O)O)cc1Nc1ccc(Cl)cc1 (single isomer, unassigned) [Example 656 E1] ... < 5 nM
CCCN(c1ccc([C@@H](CC)CC(=O)O)cc1Nc1cnc(OCC)nc1)C1CCOCC1 (single isomer, unassigned) ... < 5 nM
CC[C@H](CC(=O)O)c1ccc(N(CC)C2CCOCC2)c(Nc2ccn3nc(C)c(F)c3c2)c1 (single isomer, unassigned) ... < 50 nM
COCC(CC(=O)O)c1cc(F)c(N(CC(C)C)C2CCCCC2)c(NC(=O)Cc2ccc(C)cc2)c1 (single isomer, unassigned) ... < 50 nM
CC(CC(=O)O)c1ccc(N2CCC[C@H]2C(C)(C)O)c(Nc2ccc(C#N)cc2)c1 (single isomer, unassigned) ... > 50 nM
COCC(CC(=O)O)c1ccc(N(CC2CC2)C2CCOCC2)c(Nc2ccc(C(N)=O)nc2)c1 (single isomer, unassigned) ... > 50 nM

* * *

# MEASURED_TARGET: human IDO1 (Homo sapiens)
# MEASUREMENT_NOTES: Assessment of human IDO-1 inhibitory activity in HEK cells (human IDO1/HEK293 cells, kynurenine read-out with Ehrlich reagent, absorbance 490 nm)
# Type: cell-based
# Parameters: expressed in transfected cells
# CONDITIONS_USED: HEK Human IDO-1 cellular assay
Documented IC50 across a set of compounds
MEASURED_QUANTITY: IC50

CCOc1ncc(Nc2cc([C@@H](CC)CC(=O)O)ccc2N(CC(C)(C)O)C2CCCCC2)cn1 (single isomer, unassigned) ... < 50 nM
COCC(CC(=O)O)c1ccc(N(CC2CC2)C2CCOCC2)c(Nc2ccc(Cl)c(OCC(F)(F)F)c2)c1 (single isomer, unassigned) ... > 50 nM
CCOc1ccc(Nc2cc([C@H](CC)CC(=O)O)ccc2N(CC(C)(C)O)C2CCOCC2)c(F)c1 (single isomer, unassigned) ... < 50 nM

* * *

# MEASURED_TARGET: human IDO1 (Homo sapiens)
# MEASUREMENT_NOTES: Assessment of human IDO-1 inhibitory activity in Hela cells (Interferon-gamma stimulated HeLa cells, Ehrlich reagent, absorbance 490 nm)
# Type: cell-based
# Set-up: endogenous in cells; host or cells: HeLa cells stimulated with interferon-gamma
# CONDITIONS_USED: Hela Human IDO-1 cellular assay
pIC50: −log10 of the molar value.
MEASURED_QUANTITY: pIC50

CCOc1cnc(Nc2cc(C(C)CC(=O)O)ccc2N(CC)C2CCOCC2)cn1 (single isomer, unassigned) ... > 7.30
CCN(c1ccc(C(C)CC(=O)O)cc1Nc1cnc(OCC2CC2)nc1)C1CCOCC1 (single isomer, unassigned) ... > 7.30
CCC(CC(=O)O)c1ccc(N2CCOC[C@H]2C(C)C)c(Nc2ccc(Cl)cc2)c1 (single isomer, unassigned) ... > 8.30
COCC(CC(=O)O)c1ccc(NC2CCOCC2)c(Nc2ccc(C#N)cc2)c1 (single isomer, unassigned) [Example 928 E1] ... < 7.30
CCN(c1ccc([C@@H](COC)CC(=O)O)cc1Nc1ccc(C#N)cc1)C1CCOCC1 (stereo in doubt) ... > 8.30
CCC1COCCN1c1ccc([C@H](COC)CC(=O)O)cc1Nc1ccc(F)cc1 (single isomer, unassigned) [Example 1309] ... > 7.30
CCC(CC(=O)O)c1cc(Nc2cnc(OC)nc2)c(N(CC)C2CCOCC2)cc1F (single isomer, unassigned) ... > 8.30
CCC(CC(=O)O)c1cnc(N(CC)C2CCOCC2)c(Nc2ccc(Cl)cc2)c1 (racemic) ... > 8.30
CCC(CC(=O)O)c1ccc(N2C[C@@H]3C[C@H]2CN3C(=O)OC)c(Nc2ccc(C#N)cc2)c1 (single isomer, unassigned) ... > 7.30
CCC1COCCN1c1ccc([C@H](COC)CC(=O)O)cc1Nc1ccc(C#N)c(F)c1 (single isomer, unassigned) [Example 1288] ... < 7.30
CCN(c1ccc(C(COC)CC(=O)O)cc1Nc1ccc(Cl)cc1)C1CCS(=O)(=O)CC1 (single isomer, unassigned) [Example 170] ... > 8.30
CCN(c1ccc(C2(CC(=O)O)CCOCC2)cc1Nc1ccc(Cl)cc1)C1CCOCC1 ... > 8.30
CCC(CC(=O)O)c1ccc(N2CCN(C(=O)OC(C)(C)C)CC2)c(Nc2ccc(C#N)cc2)c1 (single isomer, unassigned) [Example 674 Enantiomer 2] ... < 7.30
CCN(c1ccc([C@@H](COC)CC(=O)O)cc1Nc1ccc(C#N)cc1F)C1CCOCC1 (single isomer, unassigned) ... > 8.30
COCC(CC(=O)O)c1ccc(N2C[C@@H](C)O[C@@H](C)C2)c(Nc2ccc(C#N)cc2)c1 (single isomer, unassigned) [602 E1] ... < 7.30
CCCN(c1ccc(C(C)(C)CC(=O)O)cc1Nc1cnc(OC)nc1)C1CCS(=O)(=O)CC1 ... < 7.30
CCCN(c1ccc([C@@H](CC)CC(=O)O)cc1NC(=O)Nc1ccc(C#N)cc1)C1CCOCC1 (single isomer, unassigned) ... > 7.30
CCN(c1ccc([C@@H](COC)CC(=O)O)cc1Nc1cccc(C#N)c1)C1CCOCC1 (single isomer, unassigned) ... > 7.30
CCN(c1ccc(C(C)CC(=O)O)cc1Nc1ccc(F)cc1)C1CCOCC1 (single isomer, unassigned) ... > 8.30
CCC1COCCN1c1ccc([C@H](COC)CC(=O)O)cc1Nc1ccc(Cl)cc1 (single isomer, unassigned) ... > 7.30
CCN(c1cc(F)c(C(COC)CC(=O)O)cc1NC(=O)Nc1ccc(Cl)cc1F)C1CCOCC1 (single isomer, unassigned) ... > 7.30
CCC(CC(=O)O)c1ccc(N(C)C2CCOCC2)c(Nc2ccc(Cl)cc2)c1 (single isomer, unassigned) ... > 8.30
CCC1COCCN1c1ccc([C@H](COC)CC(=O)O)cc1Nc1ccc(F)cc1 (single isomer, unassigned) [Example 1293] ... < 7.30
CCN(c1ccc([C@@H](CC(=O)O)C(F)(F)F)cc1NC(=O)Nc1ccc(C#N)cc1)C1CCOCC1 (single isomer, unassigned) ... < 7.30
COCC(CC(=O)O)c1ccc(N2C[C@@H]3C[C@H]2CN3C(=O)OC(C)(C)C)c(Nc2ccc(C#N)cc2)c1 (single isomer, unassigned) [Example 451 Diastereomer 2] ... < 7.30
